Values compiled from ChEMBL document CHEMBL2169787.

Tested on: Aspergillus flavus
PROCEDURE TEXT: Antifungal activity against Aspergillus flavus
Format: functional
CONDITION SUMMARY: Aspergillus flavus
# MIC values compiled below

COMPOUND	MIC, µg/mL
COc1ccc(N2OC(CO)CC2c2ccc(-c3ccccc3)cc2)cc1 (configuration not stated)	2.5
COc1ccc(N2OC(c3ccccc3)CC2c2ccc(-c3ccccc3)cc2)cc1 (configuration not stated)	2.5
Nc1nc(=O)[nH]cc1F	12.5
O=C1CCCC2=C1C(c1ccc(F)cc1)N1C(=O)CSC1=N2 (configuration not stated)	40
N#CC1=C(N)OC2=C(SC3=NC4=C(C(=O)CCC4)C(c4ccc(F)cc4)N32)C1c1ccc(Cl)cc1 (configuration not stated)	40
OCC1CC(c2ccc(-c3ccccc3)cc2)N(c2ccc(F)cc2)O1 (configuration not stated)	2.5
Fc1ccc(N2OC(c3ccccc3)CC2c2ccc(-c3ccccc3)cc2)cc1 (configuration not stated)	2.5

---

Test system: Candida parapsilosis
PROCEDURE TEXT: Antifungal activity against Candida parapsilosis
Type: functional
CONDITION SUMMARY: Lodderomyces parapsilosis

COMPOUND	MIC [µg/mL]
OC(CN1CCN(c2ccc(OCc3ccncc3)cc2)CC1)(Cn1cncn1)c1ccccc1 (configuration not stated)	0.0625
CN(CC(O)(Cn1cncn1)c1ccc(F)cc1F)C1CC1 (configuration not stated)	0.125
OC(CN1CCN(c2ccc(OCc3ccc(F)cc3)cc2)CC1)(Cn1cncn1)c1ccccc1 (configuration not stated)	0.0625
N#Cc1ccc(N(CC(O)(Cn2cncn2)c2ccc(F)cc2F)C2CC2)cc1 (configuration not stated)	0.125
CCC(C)n1ncn(-c2ccc(N3CCN(c4ccc(OCC5COC(Cn6cncn6)(c6ccc(Cl)cc6Cl)O5)cc4)CC3)cc2)c1=O (configuration not stated)	0.0625
CCCCOc1ccccc1N1CCN(CCc2nnn(C(C)C(O)(Cn3cncn3)c3ccc(F)cc3F)n2)CC1 (configuration not stated)	1
NC(=O)c1ccc(COc2ccc(N3CCN(CC(O)(Cn4cncn4)c4ccccc4)CC3)cc2)cc1 (configuration not stated)	0.0625

---

System: Aspergillus niger
PROCEDURE TEXT: Antifungal activity against Aspergillus niger assessed as growth inhibition; also: test concentration or dose not given here
Assay type: functional
# growth inhibition (GI) values compiled below

COMPOUND	growth inhibition (GI), %
COC(=O)Nc1nc2ccccc2[nH]1 [CARBENDAZIM]	90
N#CC(=C1CCCC1)c1nc2cc(Cl)ccc2o1	60
N#CC(=C1CCCCC1)c1nc2cc(Cl)ccc2o1	60
N=C1SC(c2ccc(Cl)cc2)c2cnn(C(=O)c3ccc(Cl)cc3)c2C1=N (centres undefined)	60

---

System: Aspergillus fumigatus
PROCEDURE TEXT: Antifungal activity against Aspergillus fumigatus
Assay type: functional
REPORTED ENDPOINT: MIC (µg/mL)

MOLECULE	REPORTED ENDPOINT	MEASURED
O=C(O)CCSC1=C(CO)C(=O)c2ccccc2C1=O	MIC	0.78
N#Cc1ccc(N(CC(O)(Cn2cncn2)c2ccc(F)cc2F)C2CC2)cc1 (stereo not drawn)	MIC	0.125
O=C1C(CO)=C(Sc2ccccc2)C(=O)c2ccccc21	MIC	0.78
CCC(C)n1ncn(-c2ccc(N3CCN(c4ccc(OCC5COC(Cn6cncn6)(c6ccc(Cl)cc6Cl)O5)cc4)CC3)cc2)c1=O (stereo not drawn)	MIC	0.0625
CN(CC(O)(Cn1cncn1)c1ccc(F)cc1F)C1CC1 (stereo not drawn)	MIC	0.125
OC(CN1CCN(c2ccc(OCc3ccc(F)cc3)cc2)CC1)(Cn1cncn1)c1ccccc1 (stereo not drawn)	MIC	0.0625
OC(CN1CCN(c2ccc(OCc3ccncc3)cc2)CC1)(Cn1cncn1)c1ccccc1 (stereo not drawn)	MIC	0.0625
NC(=O)c1ccc(COc2ccc(N3CCN(CC(O)(Cn4cncn4)c4ccccc4)CC3)cc2)cc1 (stereo not drawn)	MIC	0.0625
